Items are presented alongside their recorded logP.
# experiment-description: logP by HPLC on reversed-phase column (EEC Directive 79/831 Annex V.A8)
# assay-setup: HPLC on reversed-phase column (C 18), EEC Directive 79/831 Annex V.A8

# logP lookup, item `Cn1nc(C(F)F)c(C(=O)Nc2ccccc2-c2ccc(Cl)cc2)c1Cl`
3.85

Now the molecule `Cn1nc(C(F)F)c(C(=O)Nc2cccc(C3CC3)c2)c1F`
2.90

Next molecule: `CC(C)c1cccc(-c2cccc(NC(=O)c3c(C(F)F)nn(C)c3F)c2)c1`
4.41

Next record, please: `CC(C)COc1ccc(-c2cccc(NC(=O)c3c(C(F)F)nn(C)c3F)c2)cc1`
4.61

Quick one: `CC(C)Oc1cc(NC(=O)c2c(C(F)F)nn(C)c2Cl)c(Cl)cc1Cl`
4.68

Queued: `Cn1nc(C(F)F)c(C(=O)Nc2ccccc2-c2ccc(Br)cc2)c1Cl`
3.88

Entry CC1CCCC(c2ccccc2NC(=O)c2c(C(F)F)nn(C)c2F)C1 (centres unmarked) please
3.23

Now consider Cn1nc(C(F)F)c(C(=O)Nc2cccc3c2C2CCC3C2=C(Cl)Cl)c1F (centres unmarked) .
3.99

The reported numbers originate from patent US9375004B2.
